- Assay remarks: PK profiles after IV and PO administration to BALB/c mice
- Format: in vivo
- Test conditions: BALB/c, mouse, blood, po, 20 mg/kg, PO administration of 20 mpk; read-out: AUC∞
Attribute measured: AUC(0-inf) (ng·h/mL)
// units = ng·h/mL; emit number, no label

Enquiry: Could you tell me which AUC(0-inf) is on file for CC(=O)c1ccc(-c2cc(C(=O)c3ccc(C(F)(F)F)cc3)n3ccccc23)cc1 ?
Return: 3030

----------
- Test system: THP-1 cells
- Assay remarks: Cell viability assay (CellTiter Clo) in THP-1 cells
- Type: cell-based, Human
- Test conditions: THP-1 cells, 20 μM of each compound, co-treated with cGAMP (1 μg/ml)
Attribute measured: Normalized cell viability
// print number alone

Enquiry: Could you tell me which Normalized cell viability is on file for CCN(CC)c1ccc(C(=O)c2cc(-c3ccc(N(C)C)cc3)c3cc(C(F)(F)F)ccn23)cc1 ?
Return: 1.05

Enquiry: Param item: O=C(c1ccccc1)c1cc(-c2ccccc2)c2ccccn12
Return: 1.18

Enquiry: Param item: CCN(CC)c1ccc(C(=O)c2cc(-c3ccc(N(C)C)cc3)c3ccccn23)cc1
Return: 1.28

Enquiry: Param item: CC(=O)c1ccc(-c2cc(C(=O)c3ccc(C(F)(F)F)cc3)n3ccc(C(C)=O)cc23)cc1
Return: 1.09

Enquiry: Param item: CCCN(CCC)c1ccc(-c2cc(C(=O)c3ccccc3)n3ccc(C(C)=O)cc23)cc1
Return: 1.25

Enquiry: Param item: O=C(c1ccc(C(F)(F)F)cc1)c1cc(-c2ccc(C(F)(F)F)cc2)c2cc(C(F)(F)F)ccn12
Return: 1.10

Enquiry: Param item: CN(C)c1ccc(-c2cc(C(=O)c3ccc(C(F)(F)F)cc3)n3ccc(C(F)(F)F)cc23)cc1
Return: 1.05

Enquiry: Param item: COc1ccc(C(=O)c2cc(-c3ccc(C(C)=O)cc3)c3cc(C(F)(F)F)ccn23)cc1
Return: 1.25

Enquiry: Param item: CCN(CC)c1ccc(C(=O)c2cc(-c3ccc(OC)cc3)c3ccccn23)cc1
Return: 1.09

Enquiry: Param item: COc1ccc(-c2cc(C(=O)c3ccccc3)n3ccc(C(C)=O)cc23)cc1
Return: 1.20

Enquiry: Param item: CC(=O)c1ccn2c(C(=O)c3ccccc3)cc(-c3ccc(N(C)C)cc3)c2c1
Return: 1.26

Enquiry: Param item: Cc1ccc(-c2cc(C(=O)c3ccccc3)n3ccccc23)cc1N
Return: 1.17

Enquiry: Param item: CC(=O)c1cc(-c2ccc(C(F)(F)F)cc2)c2cc(C(F)(F)F)ccn12
Return: 0.78

Enquiry: Param item: CC(=O)c1ccn2c(C(=O)c3ccccc3)cc(-c3ccccc3)c2c1
Return: 1.13

Enquiry: Param item: CC(=O)c1ccc(-c2cc(C(=O)c3ccc(C(F)(F)F)cc3)n3ccc(C(F)(F)F)cc23)cc1
Return: 1.03

Enquiry: Param item: Nc1ccc(-c2cc(C(=O)c3ccccc3)n3ccccc23)cc1
Return: 1.19

Enquiry: Param item: COc1ccc(C(=O)c2cc(-c3ccc(C(F)(F)F)cc3)c3cc(C(C)=O)ccn23)cc1
Return: 1.33
